Assign self-cleavage kobs at 10000 uM GlcN6P to each entry below.
B1: glmS ribozyme (parent)
chain: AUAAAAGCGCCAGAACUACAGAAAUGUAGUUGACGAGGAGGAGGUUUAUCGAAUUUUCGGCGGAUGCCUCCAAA

# Variants of: B1
# assay-remarks: self-cleavage kobs at 10000 uM GlcN6P; higher = faster cleavage; RNA array
# experimental-setup: with glucosamine-6-phosphate
Variants at the floor of the assay were thinned out.
Numbers only, in s⁻¹.

Solved cases below.
U30G U55G C70G = 4.53e-05
A14G A39U G44A = 0.00841
U30C C71U = 0.000307

Answer for every listed entry: what is its self-cleavage kobs at 10000 uM GlcN6P? The entries follow.
1. U30A A53G
2. U30G G66U
3. A12G G41U C70U
4. G29U G32A A53C
5. G7C G51A U56A C67G C68A
6. C11G A42U C50G C67U
7. G13A C34A A36U C68G

0.00929
0.000256
0.00122
0.000364
7.59e-05
0.000569
6.2e-05

Answer for every listed entry: what is its self-cleavage kobs at 10000 uM GlcN6P? The entries follow.
1. U31C
2. A15U C70G

0.00805
8.19e-05

Answer for every listed entry: what is its self-cleavage kobs at 10000 uM GlcN6P? The entries follow.
1. U31A C67A
2. U47A C68U

1: 0.00388; 2: 0.00346

Answer for every listed entry: what is its self-cleavage kobs at 10000 uM GlcN6P? The entries follow.
1. U46G U65A C71U
2. U30G G66C
3. A12U G41U U54A
4. C16G U47A
5. U31C G32A U47G C67A

[0.00224, 0.00011, 0.000602, 0.00329, "6.62e-05"]
